These data points were gathered from patent US11498915B2.

target: UniProt:P04629; assay: hTrk kinase TR-FRET assay (headed Binding Assays), hTrkA kinase domain; assay type: biochemical; parameters: hTrkA, aa: 441-796; conditions: hTrkA kinase domain aa 441-796, N = 4, read-out: Relative IC50 hTrkA, Binding Assays
Sequence (P04629 441-796): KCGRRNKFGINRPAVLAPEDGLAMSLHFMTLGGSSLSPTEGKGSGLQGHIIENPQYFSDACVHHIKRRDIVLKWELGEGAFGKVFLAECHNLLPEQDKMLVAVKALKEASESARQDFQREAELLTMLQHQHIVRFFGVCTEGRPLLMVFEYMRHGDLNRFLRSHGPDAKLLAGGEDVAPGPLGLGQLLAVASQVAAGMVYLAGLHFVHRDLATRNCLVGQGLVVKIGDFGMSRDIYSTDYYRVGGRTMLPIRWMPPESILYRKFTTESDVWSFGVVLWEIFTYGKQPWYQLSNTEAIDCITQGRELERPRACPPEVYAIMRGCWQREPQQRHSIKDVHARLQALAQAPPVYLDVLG
READOUT NAME: IC50 (nM)
Quick note: give the figure in nM, leave out the unit.

Value lookup for IC50; key = Cn1ccc(-c2cc(C(=O)Nc3cncc(C(N)=O)c3-c3ccccn3)c(F)cc2C(F)(F)F)n1
1.09

###

target: hTrkC (Homo sapiens); assay: PathHunter cell-based assay, inhibition of SH2 domain protein recruitment, hTrkC-p75 U2OS cells; set-up: host or cells: U2OS (human bone osteosarcoma epithelial cells), PathHunter hTrkC-p75; details: hU2OS hTrkC-p75 cells, hNT-3 29 ng/ml; N = 24; read-out: Relative IC50 hTrkC, PathHunter cell-based assay
Sequence (Q16288 32-839): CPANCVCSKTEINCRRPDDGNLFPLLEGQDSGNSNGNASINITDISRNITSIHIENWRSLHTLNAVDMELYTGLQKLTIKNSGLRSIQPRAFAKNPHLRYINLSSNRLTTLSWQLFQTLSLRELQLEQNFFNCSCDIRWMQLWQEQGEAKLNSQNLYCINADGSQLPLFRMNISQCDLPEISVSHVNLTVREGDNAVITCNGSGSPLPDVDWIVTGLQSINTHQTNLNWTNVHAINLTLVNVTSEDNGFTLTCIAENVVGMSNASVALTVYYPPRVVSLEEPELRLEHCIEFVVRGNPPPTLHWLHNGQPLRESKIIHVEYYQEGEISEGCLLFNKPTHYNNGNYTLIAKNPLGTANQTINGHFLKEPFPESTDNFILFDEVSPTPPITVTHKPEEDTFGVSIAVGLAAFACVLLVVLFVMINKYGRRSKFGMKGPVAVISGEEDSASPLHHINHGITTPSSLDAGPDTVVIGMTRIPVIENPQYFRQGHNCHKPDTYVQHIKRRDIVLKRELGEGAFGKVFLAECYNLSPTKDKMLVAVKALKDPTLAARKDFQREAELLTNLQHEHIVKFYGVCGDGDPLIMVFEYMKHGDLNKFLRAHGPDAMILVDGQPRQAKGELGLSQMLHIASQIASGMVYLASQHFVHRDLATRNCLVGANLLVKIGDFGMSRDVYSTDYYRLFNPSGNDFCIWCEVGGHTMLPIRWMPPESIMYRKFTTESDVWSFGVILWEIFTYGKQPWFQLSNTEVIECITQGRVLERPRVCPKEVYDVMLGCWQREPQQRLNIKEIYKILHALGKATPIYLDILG
READOUT NAME: IC50 (µM)
Quick note: give the figure in µM, leave out the unit.

Missing value: IC50, hTrkC (Homo sapiens), entry Cn1ccc(-c2cc(C(=O)Nc3cncc(C(N)=O)c3-c3ccccn3)c(F)cc2C(F)(F)F)n1 . Fill in?
9.01
